%Inh overview
system: PIK3CG; conditions: concentration: 1 μM, replicates: in singlicate; n = 1;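 further: KINOMEscan kinase panel screen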
The reply should contain only the number, in %.

Solved entries (count: 5):
INSERT INTO measurements (compound, measured_result) VALUES
  ('Fc1cc(Cl)ccc1Nc1ccnc2cc(-c3ccc(CN4CCOCC4)o3)ccc12', 0),
  ('COc1cccc(NC(=O)NCCNc2ccnc(Nc3ccc(F)cc3)n2)c1', 0),
  ('O=C(Nc1n[nH]c2nc(-c3ccccc3)ccc12)C1CC1', 5),
  ('CN(c1ccc(NC(=O)N2CCN(CCCN3CCOCC3)CC2)cc1)c1ccnc(Nc2ccc(CS(C)(=O)=O)cc2)n1.Cl', 0),
  ('CN(c1ccc2c(c1)nc(NCc1ccccc1)n2C)c1ccnc(Nc2ccc(CS(C)(=O)=O)cc2)n1.Cl', 29);

Notebook entry, PIK3CG assay: %Inh of COc1cc(Nc2ccnc3cc(-c4ccncc4)ccc23)cc(OC)c1OC.Cl = ?
0

Notebook entry, PIK3CG assay: %Inh of CCNC(=O)/C=C/c1n[nH]c2cc(Sc3ccccc3C(=O)NC)ccc12 = ?
36

Notebook entry, PIK3CG assay: %Inh of Cn1cc(-c2cnc(N)c3c(-c4ccc5c(c4)CCN5C(=O)Cc4ccccc4)csc23)cn1 = ?
3

Notebook entry, PIK3CG assay: %Inh of CN(C)CCOc1ccc(-c2cc(-c3ccc(Cl)c(O)c3)c(-c3ccncc3)[nH]2)cc1.Cl.Cl = ?
13

Notebook entry, PIK3CG assay: %Inh of Cc1ccc(NC(=O)c2cccc(N3CCCCC3)c2)cc1-c1ccc(C(=O)NCC2CC2)cc1 = ?
0

Notebook entry, PIK3CG assay: %Inh of COc1ccc(NC(=O)c2ccoc2)cc1-c1ccc(C(=O)NCC2CC2)cc1 = ?
12

Notebook entry, PIK3CG assay: %Inh of Cc1ccc(O)cc1Nc1ccnc2cc(-c3ccc(CN4CCCCC4)o3)ccc12 = ?
0

Notebook entry, PIK3CG assay: %Inh of COc1cccc(C2=C(Nc3cccc(O)c3)C(=O)NC2=O)c1 = ?
0

Notebook entry, PIK3CG assay: %Inh of Cc1ccc(NC(=O)c2ccnc(N3CCCCC3)c2)cc1-c1ccc(C(=O)NCC2CC2)cc1 = ?
36

Notebook entry, PIK3CG assay: %Inh of CN(C)c1ncnc2nc[nH]c12 = ?
8

Notebook entry, PIK3CG assay: %Inh of CN(C)CCNS(=O)(=O)c1ccc(-c2ccnc3[nH]ccc23)cc1 = ?
8

These entries and their values trace back to paper PMC5540273.
